Assay: Selectivity index, ratio of IC50 for cytotoxicity against human MRC5 cells to IC50 for antitrypanosomal activity against Trypanosoma brucei brucei 427 bloodstream forms
Assay type: toxicity, cell-based
Conditions: read-out: Ratio IC50
measure: selectivity ratio

INSERT INTO measurements (compound, measure, assay_value) VALUES
  ('O=[N+]([O-])c1cn2c(n1)[S+]([O-])CC(OCc1ccc(-c3ccc(OC(F)(F)F)cc3)cn1)C2 (stereo unspecified)', 'selectivity ratio', '> 500');

* * *

Experiment: Selectivity index, ratio of IC50 for cytotoxicity against mouse L929 cells to IC50 for antitrypanosomal activity against Trypanosoma brucei brucei 427 bloodstream forms
Format: toxicity, cell-based
Conditions: read-out: Ratio IC50
measure: selectivity ratio

INSERT INTO assay_data (compound, measure, assay_value) VALUES
  ('O=[N+]([O-])c1cn2c(n1)OC[C@@H](OCCCc1ccc(-c3ccc(Oc4ccc(C(F)(F)F)cc4)cc3)cc1)C2', 'selectivity ratio', '> 43'),
  ('O=[N+]([O-])c1cn2c(n1)OCC(COc1ccc(-c3ccc(C(F)(F)F)cc3)nc1)C2 (centres undefined)', 'selectivity ratio', '> 36'),
  ('O=[N+]([O-])c1cn2c(n1)S(=O)(=O)CC(OCc1ccc(OC(F)(F)F)cc1)C2 (centres undefined)', 'selectivity ratio', '> 11'),
  ('O=[N+]([O-])c1cn2c(n1)[S+]([O-])CC(OCc1ccc(OCc3ccccc3)cc1)C2 (centres undefined)', 'selectivity ratio', '> 667');

* * *

Below, each entry is listed alongside its reported selectivity ratio.
Assay: Selectivity index, ratio of IC50 for cytotoxicity against mouse L929 cells to IC50 for antitrypanosomal activity against Trypanosoma brucei brucei 427 bloodstream forms
Format: toxicity, cell-based
Settings: read-out: Ratio IC50
measure: selectivity ratio

INSERT INTO results (molecule, measure, assay_value) VALUES
  ('O=[N+]([O-])c1cn2c(n1)SC(COCc1ccc(OCc3ccccc3)cc1)C2 (stereo not drawn)', 'selectivity ratio', '> 22'),
  ('O=[N+]([O-])c1cn2c(n1)[S+]([O-])CC(OCc1ccc(OC(F)(F)F)cc1)C2 (stereo not drawn)', 'selectivity ratio', '> 63'),
  ('O=[N+]([O-])c1cn2c(n1)OC[C@@H](OCC#Cc1ccc(-c3ccc(C(F)(F)F)cc3)cn1)C2', 'selectivity ratio', '> 19');

* * *

Assay: Selectivity index, ratio of IC50 for cytotoxicity against mouse L929 cells to IC50 for antitrypanosomal activity against Trypanosoma brucei brucei 427 bloodstream forms
Type: toxicity, cell-based
Conditions: read-out: Ratio IC50
Below, each entry is listed alongside its reported selectivity ratio.
measure: selectivity ratio

INSERT INTO results (molecule, assay_value) VALUES
  ('O=[N+]([O-])c1cn2c(n1)OC[C@@H](Oc1cc(-c3ccc(C(F)(F)F)nc3)ccn1)C2', '> 3.6'),
  ('O=[N+]([O-])c1cn2c(n1)OC[C@@H](NCc1ccc(OC(F)(F)F)cc1)C2', '> 13'),
  ('COc1ccc(-c2ccc(O[C@@H]3COc4nc([N+](=O)[O-])cn4C3)nc2)cn1', '> 3.7'),
  ('CC1(COCc2ccc(OCc3ccccc3)cc2)Cn2cc([N+](=O)[O-])nc2[S+]1[O-] (centres undefined)', '> 77'),
  ('O=[N+]([O-])c1cn2c(n1)[S@+]([O-])C[C@@H](OCc1ccc(OC(F)(F)F)cc1)C2', '> 143'),
  ('CC1(COCc2ccc(OCc3ccccc3)cc2)Cn2cc([N+](=O)[O-])nc2S1 (centres undefined)', '> 4.5'),
  ('O=[N+]([O-])c1cn2c(n1)OCC(COc1ccc(-c3ccc(OC(F)(F)F)cc3)nc1)C2 (centres undefined)', '> 12'),
  ('CN1CC(OCc2ccc(OCc3ccccc3)cc2)Cn2nc([N+](=O)[O-])cc21 (centres undefined)', '> 3.3'),
  ('O=[N+]([O-])c1cn2c(n1)S(=O)(=O)CC(OCc1ccc(OCc3ccccc3)cc1)C2 (centres undefined)', '> 303');

* * *

Below, each entry is listed alongside its reported Papp A→B at 2.5 h, 3 µM.
Assay: Apparent permeability in MDCK2-MDR1 cells at 3 uM incubated over 150 mins at 37 degC by LC-MS/MS method
Assay type: ADME, cell-based, Canis lupus familiaris
Conditions: dog, MDCK-MDR1
measure: Papp A→B at 2.5 h, 3 µM

INSERT INTO assay_data (molecule, assay_value) VALUES
  ('O=[N+]([O-])c1cn2c(n1)OC[C@@H](OCC#Cc1ccc(-c3ccc(C(F)(F)F)cc3)cn1)C2', '3.5 ×10⁻⁶ cm/s'),
  ('O=[N+]([O-])c1cn2c(n1)OCC(COc1ccc(-c3ccc(OC(F)(F)F)cc3)nc1)C2 (centres undefined)', '7.4 ×10⁻⁶ cm/s'),
  ('O=[N+]([O-])c1cn2c(n1)OCC(COc1ccc(-c3ccc(C(F)(F)F)cc3)nc1)C2 (centres undefined)', '11.7 ×10⁻⁶ cm/s'),
  ('O=[N+]([O-])c1cn2c(n1)S(=O)(=O)CC(OCc1ccc(OCc3ccccc3)cc1)C2 (centres undefined)', '3.69 ×10⁻⁶ cm/s');

* * *

Test: Half life in mouse liver S9 subcellular fraction
Type: ADME
Below, each entry is listed alongside its reported t1/2.
measure: t1/2

INSERT INTO assay_data (molecule, measure, assay_value) VALUES
  ('CC1(COCc2ccc(OCc3ccccc3)cc2)Cn2cc([N+](=O)[O-])nc2[S+]1[O-] (centres undefined)', 't1/2', '50 min'),
  ('CC1(COCc2ccc(OCc3ccccc3)cc2)Cn2cc([N+](=O)[O-])nc2S1 (centres undefined)', 't1/2', '31 min'),
  ('CN1CC(OCc2ccc(OCc3ccccc3)cc2)Cn2nc([N+](=O)[O-])cc21 (centres undefined)', 't1/2', '38 min'),
  ('O=[N+]([O-])c1cn2c(n1)SC(COCc1ccc(OCc3ccccc3)cc1)C2 (centres undefined)', 't1/2', '67 min');
